We begin with a simple list: items and their reported Kd.
tgt: T1, PUF4 RNA-binding domain (Saccharomyces cerevisiae, UniProt P25339 537-888)
T1 sequence: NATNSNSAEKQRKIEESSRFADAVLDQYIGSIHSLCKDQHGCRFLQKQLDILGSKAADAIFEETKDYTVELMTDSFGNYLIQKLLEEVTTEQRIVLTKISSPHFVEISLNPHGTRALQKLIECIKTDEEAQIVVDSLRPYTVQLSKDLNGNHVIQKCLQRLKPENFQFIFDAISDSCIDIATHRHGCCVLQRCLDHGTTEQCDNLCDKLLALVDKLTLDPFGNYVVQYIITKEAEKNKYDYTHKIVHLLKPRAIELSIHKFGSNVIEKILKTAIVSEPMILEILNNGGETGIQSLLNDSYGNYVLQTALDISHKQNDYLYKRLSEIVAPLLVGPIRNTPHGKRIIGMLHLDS
protocol.text: Mg; RNA-MaP; 20 mM Na-HEPES pH 7.4, 30 mM KOAc, 0.75 mM MgCl2, 0.1% Tween-20, 5% glycerol, 0.1 mg/mL BSA, 2 mM DTT; 25 C; 0.0125-409.6 nM protein
condition.parameters: tags: N-His6-TEV cleaved; C-SNAP kept, Cy3B-labelled; label: tethered on chip by stalled RNA polymerase
Give the value, in units of nM, as a plain number.

Some solved cases for reference:
1. Id_ii_S2_P3E.2_K3.1_C3.2_[T-1C]_H3.1_A3.1_F3.1_T3.2_[A10C] (ssRNA) RNA: UUUGAUUAAUAUGAUAUCGUUCUUUCUCCUGUAUAUAUCUUCUUUCUCGAUAUCAUAUUAAUCUUU | 0.998
2. Ib_S2_P3E.1_K3.1_C3.1_H3.1_A3.1_[A6T]_F3.1_[A8C]_T3.1 (ssRNA) RNA: UUUGAUUAAUAUGAUAUCGUUCUUUCUUGUAUUUCUUCUUUCUCGAUAUCAUAUUAAUCUUU | 29.3
3. UCUCUUUGUAAUGGUUUCUCUU (ssRNA) [Ic_S1_P5E.1_K5.1_C5.1_H5.1_A5.1_[T5A]_[A7G]_F5.1_[T8G]_[A10T]_T5.1] | 1060
4. UCUCUUUGUACCCAGUCUCUU (ssRNA) [Ic_S1_P4E.1_K4.1_C4.1_H4.1_A4.1_[T5C]_[A6C]_[T7C]_F4.1_[T8A]_[A9G]_T4.1] | 1230
5. Ic_S2_P5E.1_K5.1_C5.1_H5.1_A5.1_[T5G]_[A7T]_F5.1_[T9A]_[A10T]_T5.1 (ssRNA) RNA: UUUGAUUAAUAUGAUAUCGUUCUUUCUUGUAGUUUAUUUCUUUCUCGAUAUCAUAUUAAUCUUU | 1.93

[ask] Request the reported Kd associated with Id_ii_S4_P5E.2_K5.1_C5.2_[C-2A]_H5.1_A5.1_F5.1_T5.2_[T11A]_[A12C] (ssRNA) RNA: UUUGACAACUGAUCGUUCUUUCUAUUGUAUUAUUAACUUCUUUCUCGAUCAGUUGUCUUU
[reply] 5.14
